Sourced from ChEMBL document CHEMBL5352436

Listed next: entries and their corresponding recovery at 1 h, 10 µM.
test: Apparent permeability of the compound in MDCK-MDR1 cells assessed as drug recovery at 10 uM incubated for 1 hr by RF-MS analysis; format: ADME, cell-based, Canis lupus familiaris; details: dog, read-out: Drug recovery
Endpoint: recovery at 1 h, 10 µM (%)

Molecule | Unit abbreviation | Value observed
C=C(C=O)[C@@H]1CC[C@]2(C(=O)OCc3cn([C@H]4O[C@H](COC(C)=O)[C@@H](OC(C)=O)[C@H](OC(C)=O)[C@H]4OC(C)=O)nn3)CC[C@]3(C)[C@H](CC[C@@H]4[C@@]5(C)CC[C@H](O)C(C)(C)[C@@H]5CC[C@]43C)[C@@H]12 | % | 103
C=C(C)[C@@H]1CC[C@]2(C(=O)OCc3cn([C@H]4O[C@H](COC(C)=O)[C@@H](OC(C)=O)[C@H](OC(C)=O)[C@H]4OC(C)=O)nn3)CC[C@]3(C)[C@H](CC[C@@H]4[C@@]5(C)CC[C@H](O)C(C)(C)[C@@H]5CC[C@]43C)[C@@H]12 | % | 77
C=C(C=O)[C@@H]1CC[C@]2(C(=O)OCc3cn([C@H]4O[C@H](COC(C)=O)[C@@H](OC(C)=O)[C@H](OC(C)=O)[C@H]4OC(C)=O)nn3)CC[C@]3(C)[C@H](CC[C@@H]4[C@@]5(C)Cc6nccnc6C(C)(C)[C@@H]5CC[C@]43C)[C@@H]12 (stereo in doubt) | % | 77.6
C=C(C)[C@@H]1CC[C@]2(C(=O)OCc3cn([C@H]4O[C@H](COC(C)=O)[C@@H](OC(C)=O)[C@H](OC(C)=O)[C@H]4OC(C)=O)nn3)CC[C@]3(C)[C@H](CC[C@@H]4[C@@]5(C)Cc6nccnc6C(C)(C)[C@@H]5CC[C@]43C)[C@@H]12 (stereo in doubt) | % | 87.7

###

system: HCT-116; test: Cytotoxicity against human HCT-116 cells assessed as reduction in cell viability incubated for 72 hrs by MTS assay; type: functional, cell-based; details: HCT-116, 72 h
pIC50: −log10 of the molar value.
Reported pIC50 is given for each of the following compounds.

Query smiles | Bound type | pIC50
C#CCOC(=O)[C@]12CC[C@@H](C(=C)C)[C@@H]1[C@H]1CC[C@@H]3[C@@]4(C)CC[C@H](O)C(C)(C)[C@@H]4CC[C@@]3(C)[C@]1(C)CC2 | = | 4.48
CC1(C)CC[C@]2(C(=O)O)CC[C@]3(C)C(=CC[C@@H]4[C@@]5(C)Cc6nccnc6C(C)(C)[C@@H]5CC[C@]43C)[C@@H]2C1 | = | 4.30
C=C(C)[C@@H]1CC[C@]2(C(=O)OCc3cn([C@H]4O[C@H](COC(C)=O)[C@@H](OC(C)=O)[C@H](OC(C)=O)[C@H]4OC(C)=O)nn3)CC[C@]3(C)[C@H](CC[C@@H]4[C@@]5(C)CC[C@H](O)C(C)(C)[C@@H]5CC[C@]43C)[C@@H]12 | < | 4.30
C#CCOC(=O)[C@]12CC[C@@H](C(=C)C=O)[C@@H]1[C@H]1CC[C@@H]3[C@@]4(C)CC[C@H](O)C(C)(C)[C@@H]4CC[C@@]3(C)[C@]1(C)CC2 | = | 5.77
C=C(C)[C@@H]1CC[C@]2(C(=O)OCc3oc(=O)oc3C)CC[C@]3(C)[C@H](CC[C@@H]4[C@@]5(C)Cc6cccnc6C(C)(C)[C@@H]5CC[C@]43C)[C@@H]12 | < | 4.30
Cc1oc(=O)oc1COC(=O)[C@]12CC[C@@H](C(C)C)[C@@H]1[C@H]1CC[C@@H]3[C@@]4(C)Cc5nccnc5C(C)(C)[C@@H]4CC[C@@]3(C)[C@]1(C)CC2 | < | 4.30
CC1(C)CC[C@]23CC[C@]4(C)[C@H](CC[C@@H]5[C@@]6(C)Cc7cccnc7C(C)(C)[C@@H]6CC[C@]54C)[C@H]2[C@H]1OC3 | < | 4.30
C=C(C)[C@@H]1CC[C@]2(C(=O)OCc3oc(=O)oc3C)CC[C@]3(C)[C@H](CC[C@@H]4[C@@]5(C)Cc6nccnc6C(C)(C)[C@@H]5CC[C@]43C)[C@@H]12 | = | 4.40

###

test: Apparent permeability of the compound in MDCK-MDR1 cells at 10 uM incubated for 1 hr by RF-MS analysis; type: ADME, cell-based, Canis lupus familiaris; conditions: dog
Below, each entry is listed alongside its reported Papp at 1 h, 10 µM.

Compound | Papp at 1 h, 10 µM (×10⁻⁶ cm/s)
C=C(C=O)[C@@H]1CC[C@]2(C(=O)OCc3cn([C@H]4O[C@H](COC(C)=O)[C@@H](OC(C)=O)[C@H](OC(C)=O)[C@H]4OC(C)=O)nn3)CC[C@]3(C)[C@H](CC[C@@H]4[C@@]5(C)Cc6nccnc6C(C)(C)[C@@H]5CC[C@]43C)[C@@H]12 (stereo in doubt) | 0.12
C=C(C=O)[C@@H]1CC[C@]2(C(=O)OCc3cn([C@H]4O[C@H](COC(C)=O)[C@@H](OC(C)=O)[C@H](OC(C)=O)[C@H]4OC(C)=O)nn3)CC[C@]3(C)[C@H](CC[C@@H]4[C@@]5(C)CC[C@H](O)C(C)(C)[C@@H]5CC[C@]43C)[C@@H]12 | 0.32
C=C(C)[C@@H]1CC[C@]2(C(=O)OCc3cn([C@H]4O[C@H](COC(C)=O)[C@@H](OC(C)=O)[C@H](OC(C)=O)[C@H]4OC(C)=O)nn3)CC[C@]3(C)[C@H](CC[C@@H]4[C@@]5(C)CC[C@H](O)C(C)(C)[C@@H]5CC[C@]43C)[C@@H]12 | 0.28
C=C(C)[C@@H]1CC[C@]2(C(=O)OCc3cn([C@H]4O[C@H](COC(C)=O)[C@@H](OC(C)=O)[C@H](OC(C)=O)[C@H]4OC(C)=O)nn3)CC[C@]3(C)[C@H](CC[C@@H]4[C@@]5(C)Cc6nccnc6C(C)(C)[C@@H]5CC[C@]43C)[C@@H]12 (stereo in doubt) | 1.67

###

assay: Stability in human liver microsomes assessed as compound remaining at 2 uM measured at 30 mins in presence of NADPH by RF-MS analysis; assay type: ADME, Microsome; conditions: read-out: Stability
Reported remaining at 0.5 h, 2 µM by item:
Endpoint: remaining at 0.5 h, 2 µM (%)

Compound | Unit abbreviation | Value observed
C=C(C)[C@@H]1CC[C@]2(C(=O)OCc3cn([C@H]4O[C@H](COC(C)=O)[C@@H](OC(C)=O)[C@H](OC(C)=O)[C@H]4OC(C)=O)nn3)CC[C@]3(C)[C@H](CC[C@@H]4[C@@]5(C)CC[C@H](O)C(C)(C)[C@@H]5CC[C@]43C)[C@@H]12 | % | 98.8
C=C(C=O)[C@@H]1CC[C@]2(C(=O)OCc3cn([C@H]4O[C@H](COC(C)=O)[C@@H](OC(C)=O)[C@H](OC(C)=O)[C@H]4OC(C)=O)nn3)CC[C@]3(C)[C@H](CC[C@@H]4[C@@]5(C)Cc6nccnc6C(C)(C)[C@@H]5CC[C@]43C)[C@@H]12 (stereo in doubt) | % | 95.7
C=C(C=O)[C@@H]1CC[C@]2(C(=O)OCc3cn([C@H]4O[C@H](COC(C)=O)[C@@H](OC(C)=O)[C@H](OC(C)=O)[C@H]4OC(C)=O)nn3)CC[C@]3(C)[C@H](CC[C@@H]4[C@@]5(C)CC[C@H](O)C(C)(C)[C@@H]5CC[C@]43C)[C@@H]12 | % | 82.7
C=C(C)[C@@H]1CC[C@]2(C(=O)OCc3cn([C@H]4O[C@H](COC(C)=O)[C@@H](OC(C)=O)[C@H](OC(C)=O)[C@H]4OC(C)=O)nn3)CC[C@]3(C)[C@H](CC[C@@H]4[C@@]5(C)Cc6nccnc6C(C)(C)[C@@H]5CC[C@]43C)[C@@H]12 (stereo in doubt) | % | 98.3

###

experiment: Efflux ratio of apparent permeability across basolateral to apical side over apical to basolateral side in MDCK-MDR1 cells; type: ADME, cell-based, Canis lupus familiaris; conditions: dog
Endpoint: efflux ratio

Compound | Value observed
C=C(C=O)[C@@H]1CC[C@]2(C(=O)OCc3cn([C@H]4O[C@H](COC(C)=O)[C@@H](OC(C)=O)[C@H](OC(C)=O)[C@H]4OC(C)=O)nn3)CC[C@]3(C)[C@H](CC[C@@H]4[C@@]5(C)Cc6nccnc6C(C)(C)[C@@H]5CC[C@]43C)[C@@H]12 (stereo in doubt) | 4.49
C=C(C)[C@@H]1CC[C@]2(C(=O)OCc3cn([C@H]4O[C@H](COC(C)=O)[C@@H](OC(C)=O)[C@H](OC(C)=O)[C@H]4OC(C)=O)nn3)CC[C@]3(C)[C@H](CC[C@@H]4[C@@]5(C)CC[C@H](O)C(C)(C)[C@@H]5CC[C@]43C)[C@@H]12 | 5.61
C=C(C)[C@@H]1CC[C@]2(C(=O)OCc3cn([C@H]4O[C@H](COC(C)=O)[C@@H](OC(C)=O)[C@H](OC(C)=O)[C@H]4OC(C)=O)nn3)CC[C@]3(C)[C@H](CC[C@@H]4[C@@]5(C)Cc6nccnc6C(C)(C)[C@@H]5CC[C@]43C)[C@@H]12 (stereo in doubt) | 7.1
C=C(C=O)[C@@H]1CC[C@]2(C(=O)OCc3cn([C@H]4O[C@H](COC(C)=O)[C@@H](OC(C)=O)[C@H](OC(C)=O)[C@H]4OC(C)=O)nn3)CC[C@]3(C)[C@H](CC[C@@H]4[C@@]5(C)CC[C@H](O)C(C)(C)[C@@H]5CC[C@]43C)[C@@H]12 | 3.77
